Can you tell me abundance fitness for the items I'm about to list?
B1: Intersectin-2, residues 1129 to 1183; numbered along this chain, Q9NZM3 (parent)
chain: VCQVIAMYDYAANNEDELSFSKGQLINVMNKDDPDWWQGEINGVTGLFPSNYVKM

- Variants of: B1
- EXPERIMENTAL DETAILS: abundance fitness (aPCA) (normalised: wild type 0, dead -1); higher = more abundant; growth selection in yeast, the domain comes from the species named
- CONDITION SET: Homo sapiens
Numbers only.

Guide cases for abundance fitness, answers given:
abundance fitness lookup needed for Y52M , thanks.
-0.002

Fill blank: measured abundance fitness of the variant N13D is ____.
-0.033

What abundance fitness value was documented for this variant, G39T ?
-0.89

Provide reported abundance fitness for each item, in the same order as listed.
1. N27R
2. G46H
3. L47M
4. D9R
5. K54L
6. V1Y

1: -0.037; 2: -1.05; 3: -0.128; 4: -0.131; 5: -0.177; 6: -0.453
